Biological target: Isdop2 (Ixodes scapularis)
Sequence (A0ACM8DGL0 entry or part of it): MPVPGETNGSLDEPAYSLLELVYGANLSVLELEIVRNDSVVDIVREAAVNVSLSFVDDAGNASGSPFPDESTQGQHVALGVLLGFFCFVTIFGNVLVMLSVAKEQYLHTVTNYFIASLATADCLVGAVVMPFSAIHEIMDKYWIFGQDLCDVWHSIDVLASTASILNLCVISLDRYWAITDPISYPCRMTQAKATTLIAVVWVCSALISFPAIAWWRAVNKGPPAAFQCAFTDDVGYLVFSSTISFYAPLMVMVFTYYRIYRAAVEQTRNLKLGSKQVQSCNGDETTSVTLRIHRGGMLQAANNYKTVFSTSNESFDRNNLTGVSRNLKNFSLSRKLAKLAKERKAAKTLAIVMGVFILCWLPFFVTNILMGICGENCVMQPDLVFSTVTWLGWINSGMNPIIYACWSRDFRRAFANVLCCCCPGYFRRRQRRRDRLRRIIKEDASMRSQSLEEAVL
Assay: cell-based
Conditions: 10 μM compound, footnote 3 mM dopamine
Decide using % Inhibition (of response to dopamine), Isdop2 screen alone. Strictly below 90%: 1 (yes). Equal to or above 90%: 0 (no).

molecule	category
CC(C)(C)c1cc(C=C(C#N)C#N)cc(C(C)(C)C)c1O	1 (yes)
COc1cccc(-c2cc(=O)c3ccccc3o2)c1N	1 (yes)
CN1C2CCC1CC(OC(c1ccccc1)c1ccc(Cl)cc1)C2.Cl (centres unmarked)	1 (yes)

QUERY: Quick check: does C[C@@H]1O[C@@H](O[C@H]2C[C@@H](O)[C@]3(CO)[C@H]4[C@H](O)C[C@]5(C)[C@@H]([C@@H]6COC(=O)C6)CC[C@]5(O)[C@@H]4CC[C@]3(O)C2)[C@H](O)[C@H](O)[C@H]1O [Dihydroouabain] have % Inhibition (of response to dopamine), Isdop2 screen under 90%?
RESULT: 1 (yes)

QUERY: Quick check: does OC[C@H]1O[C@@H](n2cnc3ccccc32)[C@H](O)[C@@H]1O have % Inhibition (of response to dopamine), Isdop2 screen under 90%?
RESULT: 1 (yes)

====

Listed below: % Mortality 24 hrs values for each entry.
System: adult male Blatella germanica
Assay: Cockroach contact assay (topical application)
Type: in vivo
Conditions: 200 mM compound
Excerpt: A series of whole organism bioassays was developed to further evaluate the toxicity of chemistries to a range of agricultural, veterinary and public health pests and non-target insects (Tables 12 and 13). These assays are designed to rapidly explore the biological activity spectrum of chemistries as well as to facilitate initial investigations of the mode of action of insecticidal compounds. […] Lead chemistries identified in our in vivo screen have been evaluated in the cockroach and termite assays.
Write the quantity with the unit trailing the number.

Some solved cases for reference:
compound	result
CCNC(=O)N1CCN(CCCC(c2ccc(F)cc2)c2ccc(F)cc2)CC1 [Amperozide]	0%
CN1CC2c3ccccc3Oc3ccc(Cl)cc3C2C1 (stereo not drawn) [Asenapine]	5%
OCCN1CCN(CC/C=C2/c3ccccc3Sc3ccc(C(F)(F)F)cc32)CC1 [cis-(Z)-Flupenthixol]	10%
COC(=O)N(C(=O)N1CO[C@@]2(C(=O)OC)Cc3cc(Cl)ccc3C2=N1)c1ccc(OC(F)(F)F)cc1 [Indoxacarb]	50%
CN(C)CCCN1c2ccccc2Sc2ccc(Cl)cc21 [Chlorpromazine]	3%

Then this compound:
QUERY: Given CN(C)CCC=C1c2ccccc2CCc2ccccc21 [Amitriptyline] , state its recorded % Mortality 24 hrs.
RESULT: 5%

====

Molecular target: AaDOP2 (Aedes aegypti, UniProt H6D5H2)
Sequence (H6D5H2 entry or part of it): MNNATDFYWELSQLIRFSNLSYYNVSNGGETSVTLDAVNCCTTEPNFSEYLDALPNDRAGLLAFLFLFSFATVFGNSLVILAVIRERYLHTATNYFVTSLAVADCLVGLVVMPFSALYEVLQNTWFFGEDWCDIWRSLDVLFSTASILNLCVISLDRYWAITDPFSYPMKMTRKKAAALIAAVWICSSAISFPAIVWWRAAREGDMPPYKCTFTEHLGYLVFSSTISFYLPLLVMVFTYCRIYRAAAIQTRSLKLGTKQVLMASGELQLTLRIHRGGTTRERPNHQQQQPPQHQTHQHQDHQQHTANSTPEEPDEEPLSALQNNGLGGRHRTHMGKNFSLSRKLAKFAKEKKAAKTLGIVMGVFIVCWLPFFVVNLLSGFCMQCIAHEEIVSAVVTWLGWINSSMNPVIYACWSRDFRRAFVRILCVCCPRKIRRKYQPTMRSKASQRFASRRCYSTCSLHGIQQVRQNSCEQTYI
Experiment: HTRF cAMP accumulation concentration response assay (Cisbio Dynamic 2)
Assay type: cell-based
Settings: read-out: IC50 ± S.E.M. (nM), HTRF cAMP assay
recorded_endpoint: IC50 (nM)
Supply the numeric figure in nM, leaving out any unit text.

QUERY: Given CNCCCC1c2ccccc2C=Cc2ccccc21 [Protriptyline] , state its recorded IC50.
RESULT: 600

====

Target: UniProt:A0ACM8DGL0
Experiment: cell-based
Conditions: read-out: % Inhibition (of response to dopamine), Isdop2 screen
inhibition at 10 µM below 90% gives NO; inhibition at 10 µM at or above it gives YES.

Illustrative cases are given below, each with its answer.
molecule	category
OCCN1CCN(CCCN2c3ccccc3Sc3ccc(C(F)(F)F)cc32)CC1 [Fluphenazine]	NO
Oc1cc(O)cc(/C=C/c2ccc(O)c(O)c2)c1 [Piceatannol]	YES
CN(C)CCC=C1c2ccccc2CCc2ccccc21 [Amitriptyline]	NO

QUERY: Is it the case that CN1CCN(C2=Nc3ccccc3Oc3ccc(Cl)cc32)CC1 [Loxapine] has inhibition at 10 µM reaching or exceeding 90%?
RESULT: YES

QUERY: Is it the case that CCNC(=O)N1CCN(CCCC(c2ccc(F)cc2)c2ccc(F)cc2)CC1 [Amperozide] has inhibition at 10 µM reaching or exceeding 90%?
RESULT: NO

====

Biological target: AaDOP2 (Aedes aegypti, UniProt H6D5H2)
Experiment: HTRF cAMP accumulation concentration response assay (Cisbio Dynamic 2)
Assay type: cell-based
Settings: in vitro Concentration Response Curve assay, n = 2, relative to control antagonist Amitriptyline; read-out: Avg IC50
Decide using IC50 alone. Strictly below 3 µM: 1. Equal to or above 3 µM: -1.

Illustrative cases are given below, each with its answer.
molecule	category
Cc1cc(Nc2ccccc2)nc(Nc2ccc(NC(=O)CC(C)C)cc2)n1	-1
Cc1ccccc1Nc1nc(N2CCN(C)CC2)nc2c1cnn2-c1ccccc1	-1
CCOC(=O)C1=C(N)Oc2c(oc(CO)cc2=O)C1c1cc([N+](=O)[O-])ccc1Cl (centres unmarked)	1
CCC(CC)c1nc(Nc2ccc(C)c(Cl)c2)c2ccccc2n1	-1

Could you now consider this next molecule?
QUERY: Quick check: does N=C1SC(=Cc2cc3c(cc2Br)OCO3)C(=O)N1c1ccc(OC(F)(F)F)cc1 have IC50 under 3 µM?
RESULT: -1

====

Biological target: AaDOP2 (Aedes aegypti)
Assay: LOPAC1280 antagonist screen in HEK-CRELuc-Aadop2 cells
Format: cell-based
Conditions: LOPAC1280 screen hits
Listed below: % inhibition of DA activity (Aedes cell-based assay screen) values for each entry.
Supply the numeric figure in %, leaving out any unit text.

Some solved cases for reference:
molecule	quantitative_result
CN(C)CCCN1c2ccccc2Sc2ccc(C(F)(F)F)cc21 [Triflupromazine]	88
CNCCC=C1c2ccccc2CCc2ccccc21 [Nortriptyline]	96
CN1CCN(CC/C=C2/c3ccccc3Sc3ccc(S(=O)(=O)N(C)C)cc32)CC1 [Thiothixene]	86

Then this molecule:
QUERY: Given CC1(C)C(=O)N(CCN2CCC(C(=O)c3ccc(F)cc3)CC2)c2ccccc21.Cl [LY310762] , state its recorded % inhibition of DA activity (Aedes cell-based assay screen).
RESULT: 81

====

Biological target: AaDOP2 (Aedes aegypti)
Test: HTRF cAMP accumulation concentration response assay (Cisbio Dynamic 2)
Type: cell-based
Details: in vitro Concentration Response Curve assay, n = 2, relative to control antagonist Amitriptyline; read-out: Avg IC50
Where a name gives a salt, the structure may show the parent alone.
Decide using IC50 alone. Strictly below 2 µM: TRUE. Equal to or above 2 µM: FALSE.

Illustrative cases are given below, each with its answer.
compound	category
Cc1cc(Nc2ccccc2)nc(Nc2ccc(NC(=O)c3ccccc3Cl)cc2)n1 [Compound G869-0127]	FALSE
CCOC(=O)c1c(C)n(-c2ccccc2)c2cc(Br)c(OC)cc12 [ST002262]	FALSE

QUERY: Quick check: does CCN1CCN(c2nc(Nc3ccccc3)c3cnn(-c4ccccc4)c3n2)CC1 [Compound G932-0245] have IC50 under 2 µM?
RESULT: TRUE

QUERY: Quick check: does Cc1ccc(N(CC2=NCCN2)c2cccc(O)c2)cc1 [Phentolamine HCl] have IC50 under 2 µM?
RESULT: FALSE

QUERY: Quick check: does CN1CCN(c2nc(Nc3ccc(F)cc3)c3cnn(-c4ccccc4)c3n2)CC1 [Compound G932-0329] have IC50 under 2 µM?
RESULT: FALSE

QUERY: Quick check: does CCN1CCN(c2nc(Nc3cccc(F)c3)c3cnn(-c4ccccc4)c3n2)CC1 [Compound G932-0687] have IC50 under 2 µM?
RESULT: TRUE

QUERY: Quick check: does Cc1ccccc1Nc1nc(Nc2ccccc2C)c2ccccc2n1 [ST027415] have IC50 under 2 µM?
RESULT: FALSE

====

Biological target: Isdop2 (Ixodes scapularis)
Experiment: cell-based
Conditions: 10 μM compound, footnote 3 mM dopamine
recorded_endpoint: % Inhibition (of response to dopamine), Isdop2 screen

Some solved cases for reference:
compound	result
CC[C@@]1(O)C(=O)OCc2c1cc1n(c2=O)Cc2cc3ccccc3nc2-1 [(S)-(+)-Camptothecin]	97%
Cc1ccc(O)c(N=Nc2ccccc2)n1 [SIB 1757]	100%

Then this compound:
QUERY: Given CN1CCc2cccc(Cl)c2CC1 [SKF86466] , state its recorded % Inhibition (of response to dopamine), Isdop2 screen.
RESULT: 86%

====

Target: UniProt A0ACM8DGL0
Test: cell-based
Settings: read-out: % Inhibition (of response to dopamine), Isdop2 screen
recorded_endpoint: inhibition at 10 µM (%)
Supply the numeric figure in %, leaving out any unit text.

Some solved cases for reference:
structure_smiles_string	measurement_unit	quantitative_result
CN(C)CCCN1c2ccccc2Sc2ccc(Cl)cc21	%	92
CN1CCC(=C2c3ccccc3C=Cc3ccccc32)CC1	%	93
Cc1nc2ccccn2c(=O)c1CCN1CCC(C(=O)c2ccc(F)cc2)CC1	%	87

QUERY: Given CC(=O)c1c(O)c(C)c(O)c(Cc2c(O)c3c(c(C(=O)/C=C/c4ccccc4)c2O)OC(C)(C)C=C3)c1O , state its recorded inhibition at 10 µM.
RESULT: 97

QUERY: Given CC1(C)C(=O)N(CCN2CCC(C(=O)c3ccc(F)cc3)CC2)c2ccccc21.Cl , state its recorded inhibition at 10 µM.
RESULT: 72

QUERY: Given O=C1Cc2c([nH]c3ccc(Br)cc23)-c2ccccc2N1 , state its recorded inhibition at 10 µM.
RESULT: 68

QUERY: Given Cc1nc2sccn2c(=O)c1CCN1CCC(=C(c2ccc(F)cc2)c2ccc(F)cc2)CC1 , state its recorded inhibition at 10 µM.
RESULT: 77

QUERY: Given CNCCCC1c2ccccc2C=Cc2ccccc21 , state its recorded inhibition at 10 µM.
RESULT: 75

QUERY: Given Oc1ccc(C=Cc2cc(O)cc(O)c2)cc1 , state its recorded inhibition at 10 µM.
RESULT: 100
